tested-on: full-length beta-Catenin (Uniprot ID P35222) (Homo sapiens, UniProt P35222)
Construct: 10 nM full-length beta-Catenin (Uniprot ID P35222)
Sequence (P35222 1-781): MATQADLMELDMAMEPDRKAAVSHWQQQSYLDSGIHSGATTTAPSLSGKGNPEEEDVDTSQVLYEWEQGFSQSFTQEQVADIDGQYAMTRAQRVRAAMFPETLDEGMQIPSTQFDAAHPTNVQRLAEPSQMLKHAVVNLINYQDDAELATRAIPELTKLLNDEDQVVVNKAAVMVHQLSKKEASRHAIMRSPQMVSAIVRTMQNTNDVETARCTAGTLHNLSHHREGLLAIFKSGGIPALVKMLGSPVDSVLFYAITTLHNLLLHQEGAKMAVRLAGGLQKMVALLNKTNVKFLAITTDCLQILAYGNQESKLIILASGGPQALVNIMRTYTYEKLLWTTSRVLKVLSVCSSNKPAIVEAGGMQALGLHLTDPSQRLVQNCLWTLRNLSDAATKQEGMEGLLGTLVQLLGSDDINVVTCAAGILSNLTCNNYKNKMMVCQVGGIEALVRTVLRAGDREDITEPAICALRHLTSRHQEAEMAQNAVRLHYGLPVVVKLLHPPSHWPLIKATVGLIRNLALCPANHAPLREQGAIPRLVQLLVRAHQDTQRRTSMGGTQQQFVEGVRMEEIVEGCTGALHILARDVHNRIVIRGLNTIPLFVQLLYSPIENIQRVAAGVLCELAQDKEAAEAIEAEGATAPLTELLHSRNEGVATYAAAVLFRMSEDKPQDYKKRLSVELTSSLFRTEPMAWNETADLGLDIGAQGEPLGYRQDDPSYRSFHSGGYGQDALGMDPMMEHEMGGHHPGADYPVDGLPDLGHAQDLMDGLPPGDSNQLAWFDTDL
protocol-description: Fluorescence polarization IC50 (beta-catenin / 5FAM-TCF4 10-53 competition)
Format: binding
condition-summary: read-out: FP EC50
metric: pIC50
Please keep in mind that pIC50 is minus log10 of the molar concentration; only the number is needed.

**Q:** GET /values?readout=pIC50&item= CC[C@H](C)[C@@H]1NC(=O)[C@H](CC(=O)O)NC(=O)[C@]2(CC=CCCCC3(CCCC=CCCCCCC[C@@](C)(C(=O)N[C@@H](Cc4ccccc4OC)C(=O)N[C@@H](Cc4csc5ccccc45)C(=O)N[C@@H](CCC(N)=O)C(N)=O)NC(=O)[C@H](CCC(N)=O)NC(=O)[C@H](Cc4ccccc4)NC(=O)[C@H](C)NC(=O)[C@H](C)NC(=O)[C@H](CCC(=O)O)NC(=O)[C@H](CC(=O)O)NC3=O)NC1=O)CCCN2C(C)=O (stereo partly drawn) [I-527]
**A:** 7.01

**Q:** Request: CC[C@H](C)[C@@H]1NC(=O)[C@H](CC(=O)O)NC(=O)[C@]2(CC=CCCCC3(CCCC=CCCCCCC[C@@](C)(C(=O)N[C@@H](Cc4ccccc4)C(=O)N[C@@H](Cc4csc5ccccc45)C(=O)N[C@@H](CCC(N)=O)C(=O)N[C@@H](CCCCNC(=O)CN=[N+]=[N-])C(N)=O)NC(=O)[C@H](CCC(N)=O)NC(=O)[C@H](Cc4ccccc4)NC(=O)[C@H](C)NC(=O)[C@H](C)NC(=O)[C@H](CCC(=O)O)NC(=O)[C@H](CC(=O)O)NC3=O)NC1=O)CCCN2C(C)=O (stereo partly drawn) [I-597]
**A:** 7.12

**Q:** Request: CC[C@H](C)[C@@H]1NC(=O)[C@H](CC(=O)O)NC(=O)[C@]2(CC=CCCCC3(CCCC=CCCCCCC[C@@](C)(C(=O)N[C@@H](Cc4ccccc4)C(=O)N[C@@H](Cc4csc5ccccc45)C(=O)N[C@@H](CCC(N)=O)C(N)=O)NC(=O)[C@H](CCC(N)=O)NC(=O)[C@H](Cc4ccccc4)NC(=O)[C@H](C)NC(=O)[C@H](CO)NC(=O)[C@H](CCC(=O)O)NC(=O)[C@H](CC(=O)O)NC3=O)NC1=O)CCCN2C(C)=O (stereo partly drawn) [I-652]
**A:** 7.14
